// provenance: the supplement of paper PMC12667976

B1: library; numbered along this chain (parent)
chain: MATDAALRRLLRLHRTEIAVAVDSAFPLLHALADHDVVPEDKFQETLHLKEKEGCPQAFHALLSWLLTQDSTAILDFWRVLFKDYNLERYGRLQPILDSFPKDVDLSQPRKGRKPPAVPKALVPPPRLPTKRKASEEARAAAPAALTPRGTASPGSQLKAKPPKKPESSAEQQRLPLGNGIQTMSASVQRAVAMSSGDVPGARGAVEGILIQQVFESGGSKKCIQVGGEFYTPSKFEDSGSGKNKARSSSGPKPLVRAKGAQGAAPGGGEARLGQQGSVPAPLALPSDPQLHQKNEDECAVCRDGGELICCDGCPRAFHLACLSPPLREIPSGTWRCSSCLQATVQEVQPRAEEPRPQEPPVETPLPPGLRSAGEEVRGPPGEPLAGMDTTLVYKHLPAPPSAAPLPGLDSSALHPLLCVGPEGQQNLAPGARCGVCGDGTDVLRCTHCAAAFHWRCHFPAGTSRPGTGLRCRSCSGDVTPAPVEGVLAPSPARLAPGPAKDDTASHEPALHRDDLESLLSEHTFDGILQWAIQSMARPAAPFPS

# Variants of: B1
# METHOD DESCRIPTION: AIRE transcriptional activation functional score (insulin promoter-GFP; nonsense median 0, synonymous median 1) (normalised score); higher = higher AIRE activity (more reporter activation)
# DETAILS: with insulin promoter-GFP reporter in HEK293
Exercise: state measured AIRE transcriptional activation functional score for each of the variants provided.
Answers are plain numbers.

A selection of reference data follows.
> print(dat)
    sequence.change  value.reported
 1            Q108G           0.482
 2             D36W           0.641
 3            S196I           0.678
 4            V345C            1.04
 5            E137D            1.23
 6            S278C           0.735
 7            L255Q            1.01
 8             E40I           0.121
 9             L10T           0.145
10            R303V            1.16

Hey, quick one: what's AIRE transcriptional activation functional score for each of these?
1. E353S
2. A300K
3. S248M
4. G112A
5. L66N

1: 1.14; 2: 1.08; 3: 1.01; 4: 1.49; 5: -0.299

Hey, quick one: what's AIRE transcriptional activation functional score for each of these?
1. E353H
2. L81E

1. 0.837
2. 0.209
